The reported numbers originate from ChEMBL document CHEMBL4765247.

Assay: Lipophilicity, logP of the compound by UPLC-MS method
Type: physicochemical
Details: octanol/water; read-out: logP
// NB: equality with 6 counts as condition not met; only logP strictly below is condition met

{"compound": "Cc1ccsc1C(=CCCN(C)C(CC(C)O)C(=O)NCc1ccccc1)c1sccc1C (racemic; form 1)", "class": "condition met"}
{"compound": "Cc1ccsc1C(=CCCN(C)C(CCO)C(=O)NCc1ccc(F)cc1F)c1sccc1C (stereo not given)", "class": "condition not met"}
{"compound": "Cc1ccc(CNC(=O)C(CCN)N(C)CCC=C(c2sccc2C)c2sccc2C)cc1 (stereo not given)", "class": "condition not met"}
{"compound": "Cc1ccsc1C(=CCCN(C)C(CCO)C(=O)N1CCOCC1)c1sccc1C (stereo not given)", "class": "condition met"}
{"compound": "Cc1ccsc1C(=CCCN(C)C(CO)C(=O)NCc1ccc(F)cc1)c1sccc1C (stereo not given)", "class": "condition not met"}
{"compound": "Cc1ccsc1C(=CCCN(C)C(CO)C(=O)NCc1ccccc1)c1sccc1C (stereo not given)", "class": "condition not met"}
{"compound": "Cc1ccsc1C(=CCCN(C)C(CCO)C(=O)NCc1ccccc1Cl)c1sccc1C (stereo not given)", "class": "condition not met"}

====

List of pKi values.
Target: Sodium- and chloride-dependent GABA transporter 1 (Mus musculus, UniProt P31648)
Test: Displacement of [3H]NO711 from mouse GAT1 expressed in HEK293 cells measured after 40 mins of incubation by LC-ESI-MS-MS method
Type: cell-based
Details: in the assay text read “unlabelled NO711” for “[3H]NO711”
pKi: −log10 of the molar value.

{"compound": "Cc1ccsc1C(=CCCN(C)[C@@H](CO)C(=O)NCc1ccc(Cl)cc1)c1sccc1C", "pKi": 4.06}
{"compound": "Cc1ccsc1C(=CCCN(C)C(CCN)C(=O)NCc1ccc(Cl)cc1)c1sccc1C (stereo not drawn)", "pKi": 4.70}
{"compound": "Cc1ccsc1C(=CCCN(C)C(CCN)C(=O)NCc1ccc(F)cc1)c1sccc1C (stereo not drawn)", "pKi": 4.66}

====

Target: GABA transporter 4 (Mus musculus, UniProt P31650)
Sequence (P31650 whole entry): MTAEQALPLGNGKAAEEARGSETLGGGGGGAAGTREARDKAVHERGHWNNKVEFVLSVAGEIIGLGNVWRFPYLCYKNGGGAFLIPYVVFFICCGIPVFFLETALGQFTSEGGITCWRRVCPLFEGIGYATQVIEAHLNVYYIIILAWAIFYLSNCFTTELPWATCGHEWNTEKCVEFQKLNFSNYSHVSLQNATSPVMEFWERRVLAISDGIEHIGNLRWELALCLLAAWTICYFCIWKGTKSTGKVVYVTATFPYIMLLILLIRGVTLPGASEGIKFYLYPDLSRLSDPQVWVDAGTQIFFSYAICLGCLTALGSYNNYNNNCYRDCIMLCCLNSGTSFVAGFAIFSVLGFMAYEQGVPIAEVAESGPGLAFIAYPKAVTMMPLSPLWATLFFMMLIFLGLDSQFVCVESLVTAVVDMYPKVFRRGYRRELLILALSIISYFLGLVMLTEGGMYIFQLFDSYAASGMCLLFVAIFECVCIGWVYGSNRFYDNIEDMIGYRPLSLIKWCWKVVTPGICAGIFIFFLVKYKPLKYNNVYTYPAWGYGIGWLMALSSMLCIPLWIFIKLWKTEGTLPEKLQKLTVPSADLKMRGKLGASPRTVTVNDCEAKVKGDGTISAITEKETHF
Experiment: Inhibition of mouse GAT4 expressed in HEK293 cell line assessed as inhibition of [3H]GABA uptake measured after 35 mins by liquid scintillation method
Type: cell-based
pIC50: −log10 of the molar value.

{"molecule": "Cc1ccsc1C(=CCCN(C)C(CC(C)O)C(=O)NCc1ccccc1)c1sccc1C (racemic; form 2)", "pIC50": 4.73}
{"molecule": "Cc1ccsc1C(=CCCN(C)C(CCN)C(=O)NCc1ccc(Cl)cc1)c1sccc1C (stereo not given)", "pIC50": 5.09}
{"molecule": "Cc1ccsc1C(=CCCN(C)C(CCN)C(=O)NCc1ccccc1)c1sccc1C (stereo not given)", "pIC50": 5.18}
{"molecule": "Cc1ccsc1C(=CCCN(C)C(CO)C(=O)NCc1ccc(C(F)(F)F)cc1)c1sccc1C (stereo not given)", "pIC50": 4.77}
{"molecule": "NCC(O)C(=O)O (stereo not given)", "pIC50": 5.30}
{"molecule": "Cc1ccc(CNC(=O)C(CC(C)O)N(C)CCC=C(c2sccc2C)c2sccc2C)cc1 (racemic)", "pIC50": 5.26}
{"molecule": "Cc1ccsc1C(=CCCN(C)C(CCO)C(=O)NCc1ccc(F)cc1)c1sccc1C (stereo not given)", "pIC50": 4.96}
{"molecule": "Cc1ccc(CNC(=O)C(CCN)N(C)CCC=C(c2sccc2C)c2sccc2C)cc1 (stereo not given)", "pIC50": 5.16}
{"molecule": "CC(=O)NCCC(C(=O)NCc1ccccc1Cl)N(C)CCC=C(c1sccc1C)c1sccc1C (stereo not given)", "pIC50": 5.21}
{"molecule": "Cc1ccsc1C(=CCCN(C)C(CCO)C(=O)NCc1ccccc1Cl)c1sccc1C (stereo not given)", "pIC50": 5.24}
{"molecule": "Cc1ccsc1C(=CCCN(C)C(CCO)C(=O)NCc1ccc(F)cc1F)c1sccc1C (stereo not given)", "pIC50": 5.06}
{"molecule": "Cc1ccc(CNC(=O)C(CO)N(C)CCC=C(c2sccc2C)c2sccc2C)cc1 (stereo not given)", "pIC50": 5.02}
{"molecule": "Cc1ccsc1C(=CCCN(C)C(CCO)C(=O)NCc1ccc(Cl)cc1)c1sccc1C (stereo not given)", "pIC50": 5.13}
{"molecule": "Cc1ccsc1C(=CCCN(C)C(CO)C(=O)NCc1ccccc1Cl)c1sccc1C (stereo not given)", "pIC50": 4.11}
{"molecule": "Cc1ccsc1C(=CCCN(C)C(CO)C(=O)NCc1ccccc1)c1sccc1C (stereo not given)", "pIC50": 4.68}
{"molecule": "Cc1ccc(CNC(=O)C(CCO)N(C)CCC=C(c2sccc2C)c2sccc2C)cc1 (stereo not given)", "pIC50": 5.15}
{"molecule": "Cc1ccsc1C(=CCCN(C)C(CO)C(=O)NCc1ccc(F)cc1)c1sccc1C (stereo not given)", "pIC50": 4.77}
{"molecule": "Cc1ccsc1C(=CCCN(C)C(CC(C)O)C(=O)NCc1ccccc1)c1sccc1C (racemic; form 1)", "pIC50": 5.41}
{"molecule": "Cc1ccsc1C(=CCCN(C)C(CCN)C(=O)NCc1ccccc1Cl)c1sccc1C (stereo not given)", "pIC50": 5.25}
{"molecule": "Cc1ccsc1C(=CCCN(C)C(CC(C)O)C(=O)NCc1ccc(Cl)cc1)c1sccc1C (stereo in doubt)", "pIC50": 4.54}

====

Target: UniProt P31648
Experiment: Inhibition of mouse GAT1 expressed in HEK293 cell line assessed as inhibition of [3H]GABA uptake measured after 35 mins by liquid scintillation method
Type: cell-based
Listed next: entries and their corresponding IC50.

{"compound": "Cc1ccsc1C(=CCCN(C)C(CC(C)O)C(=O)NCc1ccc(Cl)cc1)c1sccc1C (mixture of isomers)", "IC50 (µM)": 57.5}
{"compound": "Cc1ccsc1C(=CCCN(C)C(CCN)C(=O)NCc1ccc(Cl)cc1)c1sccc1C (centres undefined)", "IC50 (µM)": 9.33}
{"compound": "Cc1ccsc1C(=CCCN(C)C(CC(C)O)C(=O)NCc1ccccc1)c1sccc1C (racemic; form 2)", "IC50 (µM)": 23.4}
{"compound": "Cc1ccsc1C(=CCCN(C)C(CCN)C(=O)NCc1ccccc1Cl)c1sccc1C (centres undefined)", "IC50 (µM)": 7.59}
{"compound": "Cc1ccsc1C(=CCCN(C)C(CCN)C(=O)NCc1ccc(F)cc1)c1sccc1C (centres undefined)", "IC50 (µM)": 11.7}
{"compound": "Cc1ccsc1C(=CCCN(C)C(CCO)C(=O)NCc1ccc(Cl)cc1)c1sccc1C (centres undefined)", "IC50 (µM)": 9.33}
{"compound": "Cc1ccsc1C(=CCCN(C)C(CO)C(=O)NCc1ccc(F)cc1)c1sccc1C (centres undefined)", "IC50 (µM)": 15.1}
{"compound": "Cc1ccc(CNC(=O)C(CCN)N(C)CCC=C(c2sccc2C)c2sccc2C)cc1 (centres undefined)", "IC50 (µM)": 11.5}
{"compound": "Cc1ccsc1C(=CCCN(C)C1CCc2onc(O)c2C1)c1sccc1C (centres undefined)", "IC50 (µM)": 7.08}

====

Biological target: Sodium- and chloride-dependent GABA transporter 3 (Homo sapiens)
Sequence (P48066 whole entry): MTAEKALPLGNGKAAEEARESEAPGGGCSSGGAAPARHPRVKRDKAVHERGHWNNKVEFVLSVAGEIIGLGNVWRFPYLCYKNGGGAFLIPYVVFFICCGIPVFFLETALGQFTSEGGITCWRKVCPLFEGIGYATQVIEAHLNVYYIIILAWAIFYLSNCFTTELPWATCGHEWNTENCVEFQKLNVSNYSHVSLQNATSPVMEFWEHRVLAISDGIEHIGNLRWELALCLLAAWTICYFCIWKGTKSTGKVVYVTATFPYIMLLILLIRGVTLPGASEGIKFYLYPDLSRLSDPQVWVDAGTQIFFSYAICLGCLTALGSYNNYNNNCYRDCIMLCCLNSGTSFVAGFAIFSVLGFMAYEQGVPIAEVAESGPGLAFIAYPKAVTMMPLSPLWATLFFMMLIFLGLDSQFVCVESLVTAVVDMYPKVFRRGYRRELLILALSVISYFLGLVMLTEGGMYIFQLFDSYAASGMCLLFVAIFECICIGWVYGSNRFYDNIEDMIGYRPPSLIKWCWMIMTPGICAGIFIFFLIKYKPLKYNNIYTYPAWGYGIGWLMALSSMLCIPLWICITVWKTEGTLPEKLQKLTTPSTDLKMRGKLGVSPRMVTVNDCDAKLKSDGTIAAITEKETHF
Test: Inhibition of human […] expressed in tsA201 cells assessed as inhibition of [3H]GABA uptake by liquid scintillation method

{"compound": "NCC(N)C(=O)O (stereo unspecified)", "unit.text": "µM", "IC50": 31.6}

====

Molecular target: Sodium- and chloride-dependent GABA transporter 1 (Mus musculus)
Test: Inhibition of mouse GAT1 expressed in HEK293 cell line assessed as inhibition of [3H]GABA uptake at 100 uM measured after 35 mins by liquid scintillation method; values are per cent of control

{"molecule": "Cc1ccsc1C(=CCCN(C)C(CC(C)O)C(=O)NCc1ccccc1Cl)c1sccc1C (racemic; form 2)", "residual activity": "47%"}
{"molecule": "Cc1ccsc1C(=CCCN(C)C(CC(C)O)C(=O)NCc1ccc(Cl)cc1)c1sccc1C (stereo in doubt)", "residual activity": "63%"}
{"molecule": "Cc1ccsc1C(=CCCN(C)C(CCO)C(=O)N1CCOCC1)c1sccc1C (stereo not given)", "residual activity": "57%"}
{"molecule": "Cc1ccsc1C(=CCCN(C)C(CO)C(=O)NCc1ccccc1Cl)c1sccc1C (stereo not given)", "residual activity": "61%"}
{"molecule": "Cc1ccsc1C(=CCCN(C)C(CC(C)O)C(=O)NCc1ccccc1Cl)c1sccc1C (racemic; form 1)", "residual activity": "51%"}

====

Biological target: Sodium- and chloride-dependent GABA transporter 1 (Mus musculus, UniProt P31648)
Experiment: Inhibition of mouse GAT1 expressed in HEK293 cell line assessed as inhibition of [3H]GABA uptake measured after 35 mins by liquid scintillation method
Assay type: cell-based
pIC50: −log10 of the molar value.
# maps each entry to its pIC50
measurement.name: pIC50

{"compound": "Cc1ccc(CNC(=O)C(CC(C)O)N(C)CCC=C(c2sccc2C)c2sccc2C)cc1 (racemic)", "measurement.name": "pIC50", "recorded.number": 4.91}
{"compound": "Cc1ccc(CNC(=O)C(CO)N(C)CCC=C(c2sccc2C)c2sccc2C)cc1 (stereo not given)", "measurement.name": "pIC50", "recorded.number": 4.70}
{"compound": "CC(=O)NCCC(C(=O)NCc1ccccc1Cl)N(C)CCC=C(c1sccc1C)c1sccc1C (stereo not given)", "measurement.name": "pIC50", "recorded.number": 5.06}
{"compound": "Cc1ccsc1C(=CCCN(C)C(CC(C)O)C(=O)NCc1ccc(F)cc1)c1sccc1C (racemic; form 2)", "measurement.name": "pIC50", "recorded.number": 4.07}
{"compound": "Cc1ccsc1C(=CCCN(C)C(CCO)C(=O)NC(C)c1ccccc1)c1sccc1C (stereo not given)", "measurement.name": "pIC50", "recorded.number": 4.52}
{"compound": "Cc1ccc(CNC(=O)C(CCO)N(C)CCC=C(c2sccc2C)c2sccc2C)cc1 (stereo not given)", "measurement.name": "pIC50", "recorded.number": 4.89}
{"compound": "Cc1ccsc1C(=CCCN(C)C(CCO)C(=O)NCc1ccccc1Cl)c1sccc1C (stereo not given)", "measurement.name": "pIC50", "recorded.number": 4.86}
{"compound": "Cc1ccsc1C(=CCCN(C)C(CCO)C(=O)NCc1ccccc1)c1sccc1C (stereo not given)", "measurement.name": "pIC50", "recorded.number": 4.80}
{"compound": "NCC(O)C(=O)O (stereo not given)", "measurement.name": "pIC50", "recorded.number": 2.60}
{"compound": "Cc1ccsc1C(=CCCN(C)C(CCO)C(=O)NCc1ccc(F)cc1)c1sccc1C (stereo not given)", "measurement.name": "pIC50", "recorded.number": 4.81}
